Target: TS isolated from human ovarian CH1 cells (CH1 TS) (Homo sapiens)
Construct: native enzyme partially purified from CH1 ovarian tumour cells (parental line), no tag
Sequence (P04818 2-313): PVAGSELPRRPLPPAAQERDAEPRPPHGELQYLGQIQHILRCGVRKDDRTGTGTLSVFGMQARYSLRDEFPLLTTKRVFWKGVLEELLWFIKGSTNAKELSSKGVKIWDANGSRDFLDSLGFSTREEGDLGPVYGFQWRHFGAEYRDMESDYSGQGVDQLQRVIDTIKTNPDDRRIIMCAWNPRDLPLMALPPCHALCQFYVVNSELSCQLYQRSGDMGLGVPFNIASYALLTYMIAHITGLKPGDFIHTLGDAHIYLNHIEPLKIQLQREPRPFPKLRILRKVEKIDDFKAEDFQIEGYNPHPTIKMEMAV
Assay: 3H release from [[…]-3H]dUMP, non-linear regression
pKi: −log10 of the molar value.

- compound: "Cc1nc2ccc(CN(C)c3ccc(C(=O)N[C@@H](CCC(=O)N[C@@H](CCC(=O)N[C@@H](CCC(=O)O)C(=O)O)C(=O)O)C(=O)O)s3)cc2c(=O)[nH]1 [ZD1694 triglutamate]"
  experimentalTarget: "TS isolated from human ovarian CH1 cells (CH1 TS) (Homo sapiens)"
  pKi: 8.80
